- Tested system: CB1-Receptor (Homo sapiens, UniProt P21554)
- Construct: purchased Receptor Biology, Inc
- Sequence (P21554 whole entry): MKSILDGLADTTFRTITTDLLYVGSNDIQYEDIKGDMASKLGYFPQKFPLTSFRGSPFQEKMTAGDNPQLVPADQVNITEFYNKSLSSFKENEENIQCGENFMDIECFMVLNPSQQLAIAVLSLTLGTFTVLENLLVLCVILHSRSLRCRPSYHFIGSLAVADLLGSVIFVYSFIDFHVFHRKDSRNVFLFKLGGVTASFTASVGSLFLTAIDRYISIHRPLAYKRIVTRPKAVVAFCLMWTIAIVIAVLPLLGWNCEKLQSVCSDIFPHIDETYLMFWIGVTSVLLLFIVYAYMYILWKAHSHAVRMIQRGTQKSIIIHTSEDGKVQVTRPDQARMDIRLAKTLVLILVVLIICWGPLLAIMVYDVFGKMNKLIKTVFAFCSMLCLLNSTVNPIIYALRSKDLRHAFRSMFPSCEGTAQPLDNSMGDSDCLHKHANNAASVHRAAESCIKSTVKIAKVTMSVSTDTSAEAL
- Assay details: In-vitro determination of affinity to CB1/CB2-Receptors, radioligand [3H]-CP55940
- Assay type: binding
- Condition: transfected human receptors, [3H]-CP55940; read-out: IC50
Endpoint name: pIC50
Numbers only, as −log10 of the molar value.

The cases that follow already have their pIC50 on record.
- C[C@H]1C(C(=O)NC2CCCCCC2)=NN(c2ccc(Cl)cc2Cl)[C@H]1c1ccc(F)cc1 (relative stereo): 6.95
- C[C@@H]1C(C(=O)N[C@H]2CCCC[C@@H]2O)=NN(c2ccc(Cl)cc2Cl)[C@@H]1c1ccc(Cl)cc1: 7.16
- C[C@H]1C(C(=O)NC2CCCCCC2)=NN(c2ccc(Cl)cc2Cl)[C@H]1c1ccc(Br)cc1 (relative stereo): 7.52

Next item in the queue.
[ask] Indicate its recorded pIC50; the compound in question is C[C@H]1C(C(=O)NC2CCCCCC2)=NN(c2ccc(Cl)cc2Cl)[C@H]1c1ccc(Cl)cc1 (relative stereo)
[reply] 7.50

* * *

- Tested system: recombinant human cannabinoid 1 receptor (CB1) (Homo sapiens)
- Sequence (P21554 whole entry): as above
- Assay details: [35S]GTPγS binding antagonistic assay against WIN 55,212-2, CHO cell membranes
- Format: biochemical
- Condition: compound at 1 μM against WIN 55,212-2; 100% = effect of internal standard CB1-antagonist
Please go through the items and note down their Antagonism (%).
Give bare numbers, in %.

- C[C@H]1C(C(=O)NC2CCCCCC2)=NN(c2ccc(Cl)cc2Cl)[C@H]1c1ccc(Cl)cc1 (relative stereo) [Example 1]: 79
- COc1ccc([C@H]2[C@@H](C)C(C(=O)N[C@H]3CCCC[C@@H]3O)=NN2c2ccc(Cl)cc2Cl)cc1 [Example 29]: 37
- C[C@H]1C(C(=O)N[C@H]2CCCC[C@@H]2O)=NN(c2ccc(Cl)cc2Cl)[C@H]1c1ccc(Cl)cc1 [Example 17]: 13

Could you tell me Antagonism (%) for each of these molecules? They are listed below.
1. COc1ccc([C@H]2[C@@H](C)C(C(=O)NC3CCCCCC3)=NN2c2ccc(Cl)cc2Cl)cc1 (relative stereo) [Example 11]
2. C[C@@H]1C(C(=O)N[C@H]2CCCC[C@@H]2O)=NN(c2ccc(Cl)cc2Cl)[C@@H]1c1ccc(Cl)cc1 [Example 18]
3. C[C@H]1C(C(=O)NC2CCCCCC2)=NN(c2ccc(Cl)cc2Cl)[C@H]1c1ccc(F)cc1 (relative stereo) [Example 7]
4. C[C@H]1C(C(=O)NC2CCCCCC2)=NN(c2ccc(Cl)cc2Cl)[C@H]1c1ccc(Br)cc1 (relative stereo) [Example 5]

[reply]
[78, 93, 83, 58.1]

[ask] Report the value of Antagonism (%) obtained on recombinant human cannabinoid 1 receptor (CB1) (Homo sapiens) for COc1ccc([C@@H]2[C@H](C)C(C(=O)N[C@H]3CCCC[C@@H]3O)=NN2c2ccc(Cl)cc2Cl)cc1 [Example 30] .
[reply] 85

This collection of values is drawn from patent US7994200B2.
